- Assay method text: qHTS assay for small molecule activators of the heat shock response signaling pathway (AID 743210);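 further: HeLa cells with beta-lactamase reporter driven by heat shock elements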
- Measurement context: HeLa HSE-bla reporter, beta-lactamase ratio, 5 h; series mostly up to 62.6 µM
Results filed as inconclusive are left out. Active and inactive are the calls of the source. The call rests on the fitted dose curve; in most records, active means well fitted activation curve with a large enough effect in the signal ratio in the repeat runs, with a control signal flat (not every such curve was filed as active); inconclusive means weak or mixed curves; inactive means flat fitted curve, though single readings scatter; the % refers to the signal ratio.
Quantity measured: outcome

Below, each entry is followed by its recorded outcome result.
CCN(CC)CCCN(c1ccccc1)C1Cc2ccccc2C1    inactive
NC1(c2ccc(-c3nc4ccn5c(=O)[nH]nc5c4cc3-c3ccccc3)cc2)CCC1    inactive
CC(COC(=O)c1ccccc1)OC(=O)c1ccccc1 (stereo not drawn)    inactive
COCC(=O)O[C@]1(CCN(C)CCCc2nc3ccccc3[nH]2)CCc2cc(F)ccc2[C@@H]1C(C)C    inactive
Nc1ncnc2c1ncn2[C@@H]1O[C@H](COP(=O)(O)O)[C@@H](O)[C@H]1O    inactive
ClC/C=C\CCl    inactive
O=C(O)CC(=O)O    inactive

The record that follows has no outcome shown yet.
Given `Cc1cccc(Br)c1` , respond with its outcome.
inactive
